Attribute: CD3-recruiting activity (CD3-positive proportion, N=3), CD3-stably expressing 293T cells
biological target: CD3 subunits (CD3E, CD3G, CD3D, CD3Z) (human, UniProt P07766 23-207; P09693 23-182; P04234 22-171; P20963 22-164); assay: cell-based or functional assay
Sequence (P07766 23-207, chain 1 of 4): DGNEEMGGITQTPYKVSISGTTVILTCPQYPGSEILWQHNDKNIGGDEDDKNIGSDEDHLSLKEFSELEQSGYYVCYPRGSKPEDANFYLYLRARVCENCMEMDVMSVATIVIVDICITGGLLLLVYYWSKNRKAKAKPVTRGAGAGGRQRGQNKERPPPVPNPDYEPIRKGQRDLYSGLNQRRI
Sequence (P09693 23-182, chain 2 of 4): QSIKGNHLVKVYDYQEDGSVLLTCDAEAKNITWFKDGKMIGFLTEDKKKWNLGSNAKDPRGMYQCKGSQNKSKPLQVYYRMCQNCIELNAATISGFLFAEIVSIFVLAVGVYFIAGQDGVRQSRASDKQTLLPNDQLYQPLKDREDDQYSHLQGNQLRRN
Sequence (P04234 22-171, chain 3 of 4): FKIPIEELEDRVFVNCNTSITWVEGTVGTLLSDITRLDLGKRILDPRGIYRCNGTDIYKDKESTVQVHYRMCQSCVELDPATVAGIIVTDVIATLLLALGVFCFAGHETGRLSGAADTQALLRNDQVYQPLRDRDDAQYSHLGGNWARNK
Sequence (P20963 22-164, chain 4 of 4): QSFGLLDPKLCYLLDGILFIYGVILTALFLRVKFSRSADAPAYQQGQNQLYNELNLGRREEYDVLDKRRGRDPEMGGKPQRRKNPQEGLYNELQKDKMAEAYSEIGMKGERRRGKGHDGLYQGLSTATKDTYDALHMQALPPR

# example entries with known answers
Sure, the documented CD3-recruiting activity (CD3-positive proportion, N=3), CD3-stably expressing 293T cells for modified TCR consisting of β2 and α7 (TCR) TCR alpha: SNKSDFACANAFNNSIIPEDTFFPSPESSCDVKLVEKSFETDTNLNFQNLSVIGFRILLLKVAGFNLLMTLRLWSS TCR beta: ATLVCLATGFYPDHVELSWWVNGKEVHSGVSTDPQPLKEQPALNDSRYCLSSRLRVSATFWQNPRNHFRCQVQFYGLSENDEWTQDRAKPVTQIVSAEAWGRADCGFTSESYQQGVLSATILYEILLGKATLYAVLVSALVLMAMVKRKDSRG is ≥ 20%

Sure, the documented CD3-recruiting activity (CD3-positive proportion, N=3), CD3-stably expressing 293T cells for modified TCR of the combination of βCR and α2 (TCR) TCR alpha: SVCLFTDFDSQTNVSQSKDSDVYITDKTVLDMRSMDFKSNSAVAWSNKSDFACANAFNNSIIPEDTFFPSPESSCDVKLVEKSFETDTNLNFQNLSVIGFRILLLKVAGFNLLMTLRLWSS TCR beta: EDLKNVFPPEVAVFEPSEAEISHTQKATLVCLATGFYPDHVELSWWVNGKEVHSGVSTDPQPLKEQPALNDSRYCLSSRLRVSATFWQNPRNHFRCQVQFYGLSENDEWTQDRAKPVTQIVSAEAWGRADCGFTSESYQQGVLSATILYEILLGKATLYAVLVSALVLMAMVKRKDSRG is ≥ 80%

Sure, the documented CD3-recruiting activity (CD3-positive proportion, N=3), CD3-stably expressing 293T cells for modified TCR consisting of β9 and α9 (TCR) TCR alpha: FNNSIIPEDTFFPSPESSCDVKLVEKSFETDTNLNFQNLSVIGFRILLLKVAGFNLLMTLRLWSS TCR beta: FRCQVQFYGLSENDEWTQDRAKPVTQIVSAEAWGRADCGFTSESYQQGVLSATILYEILLGKATLYAVLVSALVLMAMVKRKDSRG is ≥ 20%

Sure, the documented CD3-recruiting activity (CD3-positive proportion, N=3), CD3-stably expressing 293T cells for modified TCR consisting of β10 and α3 (TCR) TCR alpha: NVSQSKDSDVYITDKTVLDMRSMDFKSNSAVAWSNKSDFACANAFNNSIIPEDTFFPSPESSCDVKLVEKSFETDTNLNFQNLSVIGFRILLLKVAGFNLLMTLRLWSS TCR beta: YGLSENDEWTQDRAKPVTQIVSAEAWGRADCGFTSESYQQGVLSATILYEILLGKATLYAVLVSALVLMAMVKRKDSRG is ≥ 20%

More entries:
Sure, the documented CD3-recruiting activity (CD3-positive proportion, N=3), CD3-stably expressing 293T cells for modified TCR consisting of β1 and α1 (TCR) TCR alpha: YQLRDSKSSDKSVCLFTDFDSQTNVSQSKDSDVYITDKTVLDMRSMDFKSNSAVAWSNKSDFACANAFNNSIIPEDTFFPSPESSCDVKLVEKSFETDTNLNFQNLSVIGFRILLLKVAGFNLLMTLRLWSS TCR beta: SEAEISHTQKATLVCLATGFYPDHVELSWWVNGKEVHSGVSTDPQPLKEQPALNDSRYCLSSRLRVSATFWQNPRNHFRCQVQFYGLSENDEWTQDRAKPVTQIVSAEAWGRADCGFTSESYQQGVLSATILYEILLGKATLYAVLVSALVLMAMVKRKDSRG is ≥ 20%

Sure, the documented CD3-recruiting activity (CD3-positive proportion, N=3), CD3-stably expressing 293T cells for modified TCR consisting of β10 and α9 (TCR) TCR alpha: FNNSIIPEDTFFPSPESSCDVKLVEKSFETDTNLNFQNLSVIGFRILLLKVAGFNLLMTLRLWSS TCR beta: YGLSENDEWTQDRAKPVTQIVSAEAWGRADCGFTSESYQQGVLSATILYEILLGKATLYAVLVSALVLMAMVKRKDSRG is ≥ 20%

Sure, the documented CD3-recruiting activity (CD3-positive proportion, N=3), CD3-stably expressing 293T cells for modified TCR consisting of β11 and α10 (TCR) TCR alpha: IPEDTFFPSPESSCDVKLVEKSFETDTNLNFQNLSVIGFRILLLKVAGFNLLMTLRLWSS TCR beta: EWTQDRAKPVTQIVSAEAWGRADCGFTSESYQQGVLSATILYEILLGKATLYAVLVSALVLMAMVKRKDSRG is ≥ 20%

Sure, the documented CD3-recruiting activity (CD3-positive proportion, N=3), CD3-stably expressing 293T cells for modified TCR of the combination of βCR and α9 (TCR) TCR alpha: FNNSIIPEDTFFPSPESSCDVKLVEKSFETDTNLNFQNLSVIGFRILLLKVAGFNLLMTLRLWSS TCR beta: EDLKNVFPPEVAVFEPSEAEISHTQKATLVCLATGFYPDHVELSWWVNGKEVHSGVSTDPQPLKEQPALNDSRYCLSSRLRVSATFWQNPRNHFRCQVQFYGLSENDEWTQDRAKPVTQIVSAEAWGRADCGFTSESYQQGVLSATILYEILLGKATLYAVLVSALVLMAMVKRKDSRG is ≥ 80%

Sure, the documented CD3-recruiting activity (CD3-positive proportion, N=3), CD3-stably expressing 293T cells for modified TCR of the combination of βCR and α4 (TCR) TCR alpha: DVYITDKTVLDMRSMDFKSNSAVAWSNKSDFACANAFNNSIIPEDTFFPSPESSCDVKLVEKSFETDTNLNFQNLSVIGFRILLLKVAGFNLLMTLRLWSS TCR beta: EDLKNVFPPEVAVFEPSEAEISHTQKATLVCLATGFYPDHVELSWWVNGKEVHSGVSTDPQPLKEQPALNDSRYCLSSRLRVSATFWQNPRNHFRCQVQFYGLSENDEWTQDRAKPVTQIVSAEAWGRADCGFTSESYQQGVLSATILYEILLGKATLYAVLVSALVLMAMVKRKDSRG is ≥ 80%

Sure, the documented CD3-recruiting activity (CD3-positive proportion, N=3), CD3-stably expressing 293T cells for modified TCR consisting of β2 and α4 (TCR) TCR alpha: DVYITDKTVLDMRSMDFKSNSAVAWSNKSDFACANAFNNSIIPEDTFFPSPESSCDVKLVEKSFETDTNLNFQNLSVIGFRILLLKVAGFNLLMTLRLWSS TCR beta: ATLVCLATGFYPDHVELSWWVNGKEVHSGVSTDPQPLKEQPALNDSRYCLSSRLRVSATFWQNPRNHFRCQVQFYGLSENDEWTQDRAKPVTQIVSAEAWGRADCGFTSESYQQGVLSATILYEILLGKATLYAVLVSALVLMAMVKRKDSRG is ≥ 20%
